assay: RP, Merck Supelco Ascentis Express C18, 100 × 2.1 mm, 2 µm, 40 °C, 0.4 mL/min, estimated dead time 0.55 min; A: water + 0.1% formic acid, pH 3; B: acetonitrile + 0.1% formic acid, pH 3; gradient (min/%B) 0/5 2/5 17/99.9 20/99.9; settings: stereoisomer not certain
test-readout: LC retention time (min)

Take a look at these entries with their results.
Lab note: O=C(O)CCCCCCCCC(=O)O [SEBACATE] gave LC retention time of 6.39

Lab note: O=c1cccc(O)[nH]1 [2,6-DIHYDROXYPYRIDINE] gave LC retention time of 0.73

Lab note: COC(=O)Cc1c[nH]c2ccccc12 [INDOLE-3-METHYL ACETATE] gave LC retention time of 7.46

Lab note: CCC=CCC=CCC=CCC=CCC=CCCCC(=O)O [EICOSAPENTAENOATE] gave LC retention time of 13.9

Lab note: CC(=O)NC(C)C(=O)O (stereo unspecified) [N-ACETYLALANINE] gave LC retention time of 0.737

Lab note: O=C/C=C/c1ccccc1 [TRANS-CINNAMALDEHYDE] gave LC retention time of 10.1

[A] CC1C(=O)Nc2ccccc21 (stereo unspecified) [3-METHYL-2-OXINDOLE]
[B] CCCCCCCCC=CCCCCCCCCCCCCCC(=O)[O-] [NERVONATE]
[C] Nc1nc2c(ncn2C2CC(O)C(CO)O2)c(=O)[nH]1 (stereo unspecified) [DEOXYGUANOSINE]
[D] NCC(O)c1ccc(O)c(O)c1 (stereo unspecified) [NORADRENALINE]
[E] CCC=CCC1C(=O)CCC1CC(=O)OC (stereo unspecified) [METHYL JASMONATE]
Query: Arrange by LC retention time, high to low. Please respond by ranking the labels in the order requested.
Reply: B, E, A, D, C

====

test: RP, Merck Supelco Ascentis Express C18, 100 × 2.1 mm, 2 µm, 39 °C, 0.3 mL/min, estimated dead time 0.73 min; A: water + 0.1% formic acid, pH 3; B: acetonitrile + 0.1% formic acid, pH 3; gradient (min/%B) 0/5 2/5 17/99.9 20/99.9; conditions: stereoisomer not certain
test-readout: LC retention time (min)

Take a look at these entries with their results.
Lab note: CCCCC(CC)COC(=O)c1ccccc1C(=O)OCC(CC)CCCC (stereo not drawn) [BIS(2-ETHYLHEXYL)PHTHALATE] gave LC retention time of 17.7

Lab note: O=Cc1ccc(O)cc1 [4-HYDROXYBENZALDEHYDE] gave LC retention time of 4.34

Lab note: CC(C)=CCCC(C)=CCCC(C)=CCCC=C(C)CCC=C(C)CCC=C(C)C gave LC retention time of 14

Lab note: O=C(O)C(O)c1ccccc1 (stereo not drawn) [MANDELATE] gave LC retention time of 3.67

[1] NC(Cc1c[nH]c2ccc(O)cc12)C(=O)O (stereo not drawn) [5-HYDROXYTRYPTOPHAN]
[2] CC12CCC3c4ccc(O)cc4CCC3C1CCC2O (stereo not drawn)
Query: Given 1 and given 2 , which shows the smaller recorded LC retention time? I would appreciate it if you answered with the label of your choice.
Reply: 1

[P] CC(=O)NC(C)C(=O)O (stereo not drawn)
[Q] O=C(O)c1ccc2ccccc2n1 [2-QUINOLINECARBOXYLATE]
[R] CC(CCC(=O)O)C1CCC2C3C(O)CC4CC(O)CCC4(C)C3CC(O)C12C (stereo not drawn) [CHOLATE]
Query: Arrange by LC retention time, high to low. Please respond by ranking the labels in the order requested.
Reply: R, Q, P
